read-out: Broad substrate specificity ATP-binding cassette transporter ABCG2 (Homo sapiens); assay: LTEA_HepaRG_ABCG2: Life Technologies and Expression Analysis (LTEA) Assay for ABC Transporter (ABCG2) using HepaRG (AID 2283465); conditions: mRNA level, 48 h; actives raise or lower the signal
Calls of active or inactive are those of the source. Rule for the calls: active = hit-call score of the fitted dose curve at least 0.9, where 1 is the maximum; inactive = score below 0.9.
Response enum: YES (active), NO (inactive)

Worked set:
{"compound": "c1cc(-c2ccncc2)ccn1", "classLabel": "NO"}
{"compound": "Nc1ccc(S(=O)(=O)c2ccc(N)cc2)cc1", "classLabel": "NO"}
{"compound": "Cc1cccc([N+](=O)[O-])c1C", "classLabel": "NO"}

Query: What classification did CC(=O)OC/C=C(\C)CCC=C(C)C end up with in this test?
Response: NO

Query: Recorded call for CC(CO)OC(C)CO (stereo not drawn) (tested in a mixture with another compound) ?
Response: NO

Query: Status in this test for CCCCCCOCCO ?
Response: NO

Query: Called result for FC(F)(F)C(F)(F)C(F)(F)C(F)(F)C(F)(F)C(F)(F)CCI
Response: NO

Query: Called result for NS(=O)(=O)c1cc2c(cc1Cl)NCNS2(=O)=O
Response: NO

Query: Name the outcome recorded for O=[N+]([O-])C(CO)(CO)CO in the assay.
Response: NO

Query: Can you look up the reported call for NC(=O)Cn1c(=O)cc(CCN2CCN(c3nccc4sccc34)CC2)c2ccc(F)cc21 for me?
Response: NO

Query: # outcome recorded in this test, key = CN1CCN(Cc2cc(-c3ccc4[nH]c(=O)oc4c3)co2)[C@@H](c2ccc(F)cc2)C1
Response: NO

Query: Short answer needed: outcome of this test for O=C(O)Cc1ccccc1Nc1c(Cl)cccc1Cl ?
Response: NO

====

target: human AKT serine/threonine Kinase 2 (AKT2), AKT2 (gene 208) (UniProt P31751); assay: NVS_ENZ_hAKT2: NovaScreen (NVS) Enzymatic Assay for human AKT serine/threonine Kinase 2 (AKT2) (AID 2283141)
Sequence (P31751 whole entry, looked up): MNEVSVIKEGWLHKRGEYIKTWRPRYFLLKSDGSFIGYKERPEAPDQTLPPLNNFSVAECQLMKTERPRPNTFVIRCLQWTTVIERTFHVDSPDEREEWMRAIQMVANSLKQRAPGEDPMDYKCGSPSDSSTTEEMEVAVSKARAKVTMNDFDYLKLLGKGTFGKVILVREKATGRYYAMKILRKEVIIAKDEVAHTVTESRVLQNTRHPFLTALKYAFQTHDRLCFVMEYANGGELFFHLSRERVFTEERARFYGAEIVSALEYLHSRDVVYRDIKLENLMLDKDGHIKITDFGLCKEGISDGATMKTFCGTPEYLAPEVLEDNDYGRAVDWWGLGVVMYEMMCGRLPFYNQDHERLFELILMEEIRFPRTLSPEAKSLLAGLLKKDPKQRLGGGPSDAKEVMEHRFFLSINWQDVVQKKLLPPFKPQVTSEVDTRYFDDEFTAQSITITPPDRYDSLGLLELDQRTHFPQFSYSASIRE
Records with an inconclusive call do not appear. Calls of active or inactive are those of the source. Rule for the calls: active = hit-call score of the fitted dose curve at least 0.9, where 1 is the maximum; inconclusive = response in the unintended direction; inactive = score below 0.9.
# valid calls are label 1 for active, label 0 for inactive; nothing else

Some solved entries appear below for comparison.
{"compound": "CC1(C)CC(N=C=O)CC(C)(CN=C=O)C1 (stereo not given)", "targetEntity": "human AKT serine/threonine Kinase 2 (AKT2), AKT2 (gene 208) (UniProt P31751)", "classLabel": "label 1"}
{"compound": "CC1(C)NC(=O)NC1=O", "targetEntity": "human AKT serine/threonine Kinase 2 (AKT2), AKT2 (gene 208) (UniProt P31751)", "classLabel": "label 0"}
{"compound": "O=C(OCCCCCOC(=O)c1ccccc1)c1ccccc1", "targetEntity": "human AKT serine/threonine Kinase 2 (AKT2), AKT2 (gene 208) (UniProt P31751)", "classLabel": "label 0"}
{"compound": "CCCCCC(=O)O", "targetEntity": "human AKT serine/threonine Kinase 2 (AKT2), AKT2 (gene 208) (UniProt P31751)", "classLabel": "label 0"}

From here, focus on the item given below.
Query: What was the test verdict on O=c1c(O)c(-c2ccc(O)c(O)c2)oc2cc(O)cc(O)c12 ?
Response: label 0

====

experiment: APR_HepG2_MitoticArrest_24hr: Apredica 24-hour HepG2 Assay for Mitotic Arrest (AID 2282910); conditions: high-content imaging, actives raise or lower the signal
Active and inactive are the calls of the source. The calls were made as follows: active = hit-call score of the fitted dose curve at least 0.9, where 1 is the maximum; inactive = score below 0.9.
quantityName: AC50

Here is how some molecules turned out for AC50.
{"molecule": "O=C(N[C@@H](Cc1ccccc1)[C@@H](O)C(=O)N1C[C@@H](O)[C@@H](O)C1)c1cc2cc(Cl)ccc2[nH]1", "obsValue": "inactive"}
{"molecule": "Nc1ccc2c(c1)C(=O)c1ccccc1C2=O", "obsValue": "inactive"}
{"molecule": "COc1ccc(C)cc1N", "obsValue": "inactive"}
{"molecule": "CCCCCCCCCCO", "obsValue": "inactive"}

Query: Item O=[N+]([O-])C(CO)(CO)CO has what recorded AC50?
Response: inactive

Query: Item CN1CCCC1=O has what recorded AC50?
Response: inactive

Query: Give the measured AC50 of CCc1c(C(=O)NN2CCCCC2)nn(-c2ccc(Cl)cc2Cl)c1-c1ccc(Br)cc1 .
Response: 46.8 µM (active)

Query: I am curious: what AC50 value has been reported for O=c1c(O)c(-c2ccc(O)c(O)c2)oc2cc(O)cc(O)c12 ?
Response: inactive

====

assay: Tanguay_ZF_120hpf_ActivityScore_legacy: (Legacy) Oregon State University Tanguay Lab 120 Hour Post-fertilization zebrafish Assay Score for Activity (AID 2283742)
The source made the active and inactive calls. How the source made its calls: active means hit-call score of the fitted dose curve at least 0.9, where 1 is the maximum; inconclusive means response in the unintended direction; inactive means score below 0.9.
// classify into active, inactive

{"compound": "Cc1ccc(N(C)C)cc1", "classLabel": "inactive"}
{"compound": "CNCc1cc(F)ccc1Oc1ccc(Cl)c(Cl)c1", "classLabel": "inactive"}
{"compound": "Nc1ccccc1N", "classLabel": "inactive"}
{"compound": "C=CCc1ccc(O)c(OC)c1", "classLabel": "inactive"}

Query: // return assay outcome for COC(=O)c1ccc(O)cc1
Response: inactive

Query: What is the recorded call for this compound in the test? Cc1cc(NC(=O)C(=O)O)cc(C)c1Oc1ccc(O)c2c1CCC2
Response: active

Query: // outcome(item) with item = CCOC(=O)C(C)(C)Oc1ccc(Cl)cc1
Response: active

====

read-out: Insulin-like growth factor-binding protein 1 (IGFBP1), IGFBP1 (gene 3484); experiment: LTEA_HepaRG_IGFBP1: Life Technologies and Expression Analysis (LTEA) Assay for Insulin-like growth factor-binding protein 1 (IGFBP1) using HepaRG (AID 2283508); conditions: mRNA level, 48 h; actives raise or lower the signal
Active and inactive are the calls of the source. The calls were made as follows: active = hit-call score of the fitted dose curve at least 0.9, where 1 is the maximum; inactive = score below 0.9.
Pick one: t for active, f for inactive

{"smilesRepresentation": "Cc1oc(-c2ccccc2)nc1CCOc1cccc2c1ccn2CCC(=O)O", "classLabel": "t"}

Query: How was Nc1nc(N)c2nc(CNc3ccc(C(=O)N[C@@H](CCC(=O)O)C(=O)O)cc3)cnc2n1 classified in this test?
Response: t

Query: Short answer needed: outcome of this test for CCOC(=O)C(C)(C)Oc1ccc(Cl)cc1 ?
Response: f

Query: Assay outcome for CCCc1cc(=O)[nH]c(=S)[nH]1 : what was it?
Response: f

====

read-out: serum amyloid A (SAA), SAA1 (gene 6288); test: BSK_CASM3C_SAA: BioMAP Diversity Plus: CASM3C Assay for serum amyloid A (SAA) Biomarker Activity (AID 2283049); settings: primary human coronary artery smooth muscle cells; actives raise or lower the signal;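 note: SAA protein level quantified by ELISA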
The source made the active and inactive calls. Rule for the calls: active = hit-call score of the fitted dose curve at least 0.9, where 1 is the maximum; inactive = score below 0.9.
Write down one outcome, taken from 1 (yes) (active), 0 (no) (inactive)

These recorded examples may help you get a feel for the data.
{"molecule": "Cc1cc(=O)[nH]c(=S)[nH]1", "classLabel": "0 (no)"}
{"molecule": "Nc1ccc(S(=O)(=O)c2ccc(N)cc2)cc1", "classLabel": "0 (no)"}
{"molecule": "Cc1nc(-c2ccc3c(c2)CCN(CCC2CCC(NC(=O)/C=C/c4ccc(F)cc4)CC2)CC3)no1 (centres undefined)", "classLabel": "1 (yes)"}

Query: Recorded test outcome, item Cc1nc(C)nc(N2C[C@@H](C)N(c3ccnc([C@@H](C)O)n3)[C@@H](C)C2)n1
Response: 0 (no)

Query: For C=CCOC(=O)c1ccccc1C(=O)OCC=C , what call appears in the results of this test?
Response: 0 (no)

Query: Assay result, entry CC1(C)CC(N=C=O)CC(C)(CN=C=O)C1 (centres undefined) — outcome?
Response: 0 (no)

Query: Which outcome did this test record for the molecule C[C@]12C=CC(=O)C=C1CC[C@@H]1[C@@H]2C(=O)C[C@@]2(C)[C@H]1CC[C@]2(O)C(=O)CO ?
Response: 1 (yes)

Query: Status in this test for CC(=O)Oc1ccccc1C(=O)O ?
Response: 0 (no)

Query: Short answer needed: outcome of this test for CN[C@H]1CC[C@@H](c2ccc(Cl)c(Cl)c2)c2ccc(S(N)(=O)=O)cc21 ?
Response: 1 (yes)

====

read-out: Monokine induced gamma interferon (MIG), CXCL9 (gene 4283); test: BSK_hDFCGF_MIG: BioMAP Diversity Plus: hDFCGF Assay for Monokine induced gamma interferon (MIG) Biomarker Activity (AID 2283063); settings: primary human foreskin fibroblasts; actives raise or lower the signal
The source made the active and inactive calls. Rule for the calls: active = hit-call score of the fitted dose curve at least 0.9, where 1 is the maximum; inactive = score below 0.9.
# valid calls are active, inactive; nothing else

{"smilesRepresentation": "CCCCCCCCCCCCCO", "classLabel": "active"}
{"smilesRepresentation": "CNCc1cc(F)ccc1Oc1ccc(Cl)c(Cl)c1", "classLabel": "inactive"}
{"smilesRepresentation": "CCCCCCCC=O", "classLabel": "inactive"}
{"smilesRepresentation": "CN1CCCC1=O", "classLabel": "inactive"}
{"smilesRepresentation": "CCCCCCCCCCCCCCCCCC(=O)O", "classLabel": "inactive"}
{"smilesRepresentation": "Nc1ccc2c(c1)C(=O)c1ccccc1C2=O", "classLabel": "inactive"}
{"smilesRepresentation": "CCCCCC(=O)O", "classLabel": "inactive"}
{"smilesRepresentation": "NS(=O)(=O)c1cc2c(cc1Cl)NCNS2(=O)=O", "classLabel": "inactive"}

Query: # lookup: test call for Cc1ccc(N(C)C)cc1
Response: inactive
